// data source = ChEMBL document CHEMBL3608305

Target: Autoinducer 2-binding periplasmic protein LuxP (Vibrio harveyi, UniProt P54300)
Sequence (P54300 whole entry): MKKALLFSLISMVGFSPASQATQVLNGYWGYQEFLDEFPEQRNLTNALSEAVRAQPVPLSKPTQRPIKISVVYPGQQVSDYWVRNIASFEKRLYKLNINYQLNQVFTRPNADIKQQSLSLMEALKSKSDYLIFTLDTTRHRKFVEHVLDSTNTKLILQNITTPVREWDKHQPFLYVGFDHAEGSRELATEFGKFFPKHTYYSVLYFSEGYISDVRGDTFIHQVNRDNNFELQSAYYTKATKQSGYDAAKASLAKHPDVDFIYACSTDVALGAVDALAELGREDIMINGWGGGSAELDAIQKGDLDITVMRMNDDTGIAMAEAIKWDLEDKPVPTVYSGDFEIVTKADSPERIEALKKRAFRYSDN
Assay: Binding affinity to LuxP in Vibrio harveyi MM32 assessed as activation of quorum sensing system after 5 hrs by bioluminescence assay in presence of exogenous synthetic DPD
Recorded Endpoint: EC50 (µM)

* O=C(Cc1ccc2ccccc2c1)C(=O)[C@@H](O)CO | 20
